Property: growth; scope: individual compounds
tested on: SR leukemia; test: NCI-60 one-dose screen, 48 h (100 = growth as untreated, 0 = no growth, -100 = all killed); settings: 10 µM unless noted
The panel holds about 83,000 compounds, 20% with a hit somewhere; the sample as a whole holds those more often.
Provide only the numeric value, understood in %.

Name the recorded growth for COc1ccc(-c2nc(SCC(C)C)nc(N/N=C\c3cccc([N+](=O)[O-])c3)c2C#N)cc1 .
43.5

More entries:
For the compound C[C@@H]1C[C@H]2C(=O)OCC(NC(=O)[C@H](Cc3cc(F)cc(F)c3)NC(=O)Nc3ccc(Cl)cc3F)C(=O)N3CCC[C@H]3C(=O)N3CCCC[C@H]3C(=O)N[C@@H](C)C(=O)N2C1 (stereo not given in full) , what growth is on record?
21.8

Now the compound Cc1cc(O)c2c(c1)C(=O)C(c1c(C)cc3c(c1O)C(=O)C=CC3=O)=CC2=O
11.1

Try C#C[C@]1(O)CC[C@H]2[C@@H]3CC=C4c5sc(-c6cccc(F)c6)nc5CC[C@]4(C)[C@H]3CC[C@@]21C next.
76.4

Let us now turn to CCOC(=O)c1ccc(N/C=C/C(=O)c2ccccc2)cc1
87.8
